Values were extracted from ChEMBL document CHEMBL3124843.

System: HCT-116
Experiment: Cytostatic activity against p53-deficient human HCT116 cells after 72 hrs by MTT assay
Assay type: functional, cell-based
Conditions: HCT-116, 72 h
The following compounds are listed with their measured IC50 values.

CSc1ncnc2c1c(-c1ccco1)cn2[C@@H]1O[C@H](CO)[C@@H](O)[C@H]1O : 0.01 µM
Nc1nc(N)c2c(-c3cc4ccccc4o3)cn([C@@H]3O[C@H](CO)[C@@H](O)[C@H]3O)c2n1 : 14 µM

INPUT: Reported IC50, compound `CN(C)c1ncnc2c1c(-c1ccccc1)cn2[C@@H]1O[C@H](CO)[C@@H](O)[C@H]1O` : ____
OUTPUT: > 20 µM

INPUT: One more compound: `COc1nc(N)nc2c1c(-c1ccccc1)cn2[C@@H]1O[C@H](CO)[C@@H](O)[C@H]1O`
OUTPUT: > 20 µM

INPUT: One more compound: `CNc1ncnc2c1c(-c1ccsc1)cn2[C@@H]1O[C@H](CO)[C@@H](O)[C@H]1O`
OUTPUT: > 20 µM
